- TARGET OR SYSTEM: c-Met (Homo sapiens)
- TEST NAME: Delfia autophosphorylation kinase assay on the c-Met
- Type: biochemical
- Set-up: The purified His6 tagged cytoplasmic domain of c-Met was diluted to a concentration of 500 ng/ml; host or cells: Sf9 insect cells (baculovirus, pFastBacHTa)
- STUDY CONDITIONS: His6 tagged cytoplasmic domain of c-Met, 1 μM ATP; read-out: cMet Delfia autophos IC-50
- Sequence (P08581 956-1390 limits assumed): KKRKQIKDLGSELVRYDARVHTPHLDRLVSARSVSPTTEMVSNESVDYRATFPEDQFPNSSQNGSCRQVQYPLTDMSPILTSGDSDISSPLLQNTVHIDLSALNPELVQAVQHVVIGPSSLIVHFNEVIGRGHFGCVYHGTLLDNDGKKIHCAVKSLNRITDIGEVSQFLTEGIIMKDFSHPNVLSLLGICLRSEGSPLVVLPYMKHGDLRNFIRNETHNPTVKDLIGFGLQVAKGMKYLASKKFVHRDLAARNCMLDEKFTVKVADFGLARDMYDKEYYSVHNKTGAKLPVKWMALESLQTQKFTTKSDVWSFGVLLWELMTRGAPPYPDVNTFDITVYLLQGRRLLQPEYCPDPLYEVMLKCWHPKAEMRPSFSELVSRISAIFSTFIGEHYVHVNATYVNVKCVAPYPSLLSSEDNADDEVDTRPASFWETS
PROPERTY MEASURED: IC50 (nM)

>  <SMILES NOTATION>
CN1CCN(C(=O)c2ccc(-c3ccc4nnc(Cc5ccc6c(c5)CCO6)n4n3)s2)CC1

>  <PROPERTY MEASURED>
IC50

>  <RECORDED VALUE>
2

$$$$
>  <SMILES NOTATION>
Cc1cc(-c2ccc3nnc(C(F)(F)c4ccc5ncccc5c4)n3n2)ccn1

>  <PROPERTY MEASURED>
IC50

>  <RECORDED VALUE>
2.8

$$$$
>  <SMILES NOTATION>
c1cnc2ccc(Cc3nnc4ccc(-c5cncnc5)nn34)cc2c1

>  <PROPERTY MEASURED>
IC50

>  <RECORDED VALUE>
17

$$$$
>  <SMILES NOTATION>
CCOC(=O)c1ccc(-c2ccc3nnc(Cc4ccc(O)cc4)n3n2)s1

>  <PROPERTY MEASURED>
IC50

>  <RECORDED VALUE>
2

$$$$
>  <SMILES NOTATION>
c1cnc2ccc(Cc3nnc4ccc(-n5ccnc5)nn34)cc2c1

>  <PROPERTY MEASURED>
IC50

>  <RECORDED VALUE>
11

$$$$
>  <SMILES NOTATION>
c1cc(-c2ccc3nnc(Cc4ccc5c(c4)CCO5)n3n2)ccn1

>  <PROPERTY MEASURED>
IC50

>  <RECORDED VALUE>
111

$$$$
>  <SMILES NOTATION>
c1csc(-c2ccc3nnc(Cc4ccc5occc5c4)n3n2)c1

>  <PROPERTY MEASURED>
IC50

>  <RECORDED VALUE>
9

$$$$
>  <SMILES NOTATION>
N#Cc1ccc(-c2ccc3nnc(Cc4ccc5ncccc5c4)n3n2)cn1

>  <PROPERTY MEASURED>
IC50

>  <RECORDED VALUE>
12

$$$$
>  <SMILES NOTATION>
c1cc2c(cc1Cc1nnc3ccc(-c4ccc(CN5CCOCC5)o4)nn13)CCO2

>  <PROPERTY MEASURED>
IC50

>  <RECORDED VALUE>
1080

$$$$
>  <SMILES NOTATION>
Cn1cc(-c2ccc3nnc(Cc4ccc5nc(N)sc5c4)n3n2)cn1

>  <PROPERTY MEASURED>
IC50

>  <RECORDED VALUE>
4

$$$$
>  <SMILES NOTATION>
Cc1nc2ccc(-c3ccc4nnc(Cc5ccc6ncccc6c5)n4n3)cc2[nH]1

>  <PROPERTY MEASURED>
IC50

>  <RECORDED VALUE>
30

$$$$
>  <SMILES NOTATION>
Cc1cc(-c2ccc3nnc(Cc4ccc5ncccc5c4)n3n2)ccn1

>  <PROPERTY MEASURED>
IC50

>  <RECORDED VALUE>
0.6

$$$$
>  <SMILES NOTATION>
O=C(NCCN1CCOCC1)c1ccc(-c2ccc3nnc(Cc4ccc5c(c4)CCO5)n3n2)s1

>  <PROPERTY MEASURED>
IC50

>  <RECORDED VALUE>
3

$$$$
>  <SMILES NOTATION>
c1ccc(-c2ccc3nnc(Cc4ccc5c(c4)CCO5)n3n2)nc1

>  <PROPERTY MEASURED>
IC50

>  <RECORDED VALUE>
172

$$$$
>  <SMILES NOTATION>
FC(F)(c1ccc2ncccc2c1)c1nnc2ccc(-c3cccnc3)nn12

>  <PROPERTY MEASURED>
IC50

>  <RECORDED VALUE>
3

$$$$
>  <SMILES NOTATION>
c1cnc2ccc(Cc3nnc4ccc(-c5cc6ccccc6s5)nn34)cc2c1

>  <PROPERTY MEASURED>
IC50

>  <RECORDED VALUE>
0.3

$$$$
>  <SMILES NOTATION>
O=c1ccc(-c2ccc3nnc(Cc4ccc5ncccc5c4)n3n2)c[nH]1

>  <PROPERTY MEASURED>
IC50

>  <RECORDED VALUE>
3

$$$$
>  <SMILES NOTATION>
Cn1cc(-c2ccc3nnc(C(F)(F)c4ccc5ncccc5c4)n3n2)cn1

>  <PROPERTY MEASURED>
IC50

>  <RECORDED VALUE>
1

$$$$

====

- TARGET OR SYSTEM: c-Met (Homo sapiens)
- TEST NAME: Cell based ELISA assay for HGF stimulated c-Met phosphorylation in S114 cells
- Design: expressed in transfected cells; host or cells: S114 (murine NIH 3T3 derived)
- STUDY CONDITIONS: read-out: c-Met Cell ELISA IC-50
- Sequence (P08581 25-1390): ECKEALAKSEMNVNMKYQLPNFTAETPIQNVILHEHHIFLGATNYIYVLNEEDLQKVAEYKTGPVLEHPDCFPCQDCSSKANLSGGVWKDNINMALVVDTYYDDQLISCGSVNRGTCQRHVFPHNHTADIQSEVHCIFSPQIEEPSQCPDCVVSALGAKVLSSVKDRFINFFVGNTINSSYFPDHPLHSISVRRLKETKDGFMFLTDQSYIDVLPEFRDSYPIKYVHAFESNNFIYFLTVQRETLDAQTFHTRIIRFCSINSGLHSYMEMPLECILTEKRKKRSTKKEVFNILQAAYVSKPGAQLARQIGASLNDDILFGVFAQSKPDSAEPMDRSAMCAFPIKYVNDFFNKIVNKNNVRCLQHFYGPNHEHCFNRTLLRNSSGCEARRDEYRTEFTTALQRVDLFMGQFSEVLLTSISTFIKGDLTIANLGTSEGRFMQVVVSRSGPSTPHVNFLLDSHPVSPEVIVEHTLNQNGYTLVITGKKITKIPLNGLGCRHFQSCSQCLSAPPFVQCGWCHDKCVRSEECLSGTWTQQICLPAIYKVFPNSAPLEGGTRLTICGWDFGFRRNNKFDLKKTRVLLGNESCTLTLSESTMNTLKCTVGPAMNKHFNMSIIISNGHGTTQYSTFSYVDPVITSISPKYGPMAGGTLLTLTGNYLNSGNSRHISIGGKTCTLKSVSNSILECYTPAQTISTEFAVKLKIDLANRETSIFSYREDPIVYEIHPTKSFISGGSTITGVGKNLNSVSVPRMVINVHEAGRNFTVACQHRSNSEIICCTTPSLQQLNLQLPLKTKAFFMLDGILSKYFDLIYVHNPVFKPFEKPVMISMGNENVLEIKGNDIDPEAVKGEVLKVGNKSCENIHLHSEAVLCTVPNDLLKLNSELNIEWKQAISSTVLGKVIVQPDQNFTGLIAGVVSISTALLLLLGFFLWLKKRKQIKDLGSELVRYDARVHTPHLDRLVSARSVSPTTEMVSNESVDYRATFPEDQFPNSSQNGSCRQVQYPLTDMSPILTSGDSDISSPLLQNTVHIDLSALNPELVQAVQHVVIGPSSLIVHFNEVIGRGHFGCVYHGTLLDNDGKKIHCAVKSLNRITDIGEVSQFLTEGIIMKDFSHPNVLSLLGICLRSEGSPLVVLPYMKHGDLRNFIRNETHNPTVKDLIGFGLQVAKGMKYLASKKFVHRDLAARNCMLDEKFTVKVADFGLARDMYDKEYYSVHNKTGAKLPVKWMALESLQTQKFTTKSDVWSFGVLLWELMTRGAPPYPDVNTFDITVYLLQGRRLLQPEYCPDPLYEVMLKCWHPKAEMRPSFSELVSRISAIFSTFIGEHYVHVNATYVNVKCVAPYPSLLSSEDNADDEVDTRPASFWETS
Let's look at some compounds and their measured log10(IC50).
PROPERTY MEASURED: log10(IC50) (log10 of the value in nM)

>  <COMPOUND>
c1cnc2ccc(Cc3nnc4ccc(-c5ccncc5)nn34)cc2c1 [Example 6]

>  <log10(IC50)>
2.05

$$$$
>  <COMPOUND>
c1cnc2ccc(Cc3nnc4ccc(-c5cn[nH]c5)nn34)cc2c1 [Example 76]

>  <log10(IC50)>
2.26

$$$$
>  <COMPOUND>
OCCCn1cc(-c2ccc3nnc(Cc4ccc5ncccc5c4)n3n2)cn1 [Example 75]

>  <log10(IC50)>
1.78

$$$$
>  <COMPOUND>
COCCn1cc(-c2ccc3nnc(Cc4ccc5ncccc5c4)n3n2)cn1 [Example 16]

>  <log10(IC50)>
2.47

$$$$
>  <COMPOUND>
c1cc(-c2ccc3nnc(Cc4ccc5c(c4)CCO5)n3n2)ccn1 [Example 7]

>  <log10(IC50)>
3.33

$$$$
>  <COMPOUND>
O=C(c1ccc(-c2ccc3nnc(Cc4ccc5ncccc5c4)n3n2)s1)N1CCS(=O)(=O)CC1 [Example 54]

>  <log10(IC50)>
0.78

$$$$
>  <COMPOUND>
Brc1cn(-c2ccc3nnc(Cc4ccc5ncccc5c4)n3n2)cn1 [Example 44]

>  <log10(IC50)>
2.16

$$$$
>  <COMPOUND>
CS(=O)(=O)N1CCN(C(=O)c2ccc(-c3ccc4nnc(Cc5ccc6ncccc6c5)n4n3)s2)CC1 [Example 56]

>  <log10(IC50)>
1.36

$$$$
>  <COMPOUND>
c1csc(-c2ccc3nnc(Cc4ccc5ncccc5c4)n3n2)c1 [Example 39]

>  <log10(IC50)>
0.00

$$$$
>  <COMPOUND>
Cn1cc(-c2ccc3nnc(Cc4ccc5nc(N)sc5c4)n3n2)cn1 [Example 93]

>  <log10(IC50)>
2.11

$$$$
>  <COMPOUND>
c1csc(-c2ccc3nnc(Cc4ccc5occc5c4)n3n2)c1 [Example 35]

>  <log10(IC50)>
1.88

$$$$
>  <COMPOUND>
FC(F)(c1ccc2ncccc2c1)c1nnc2ccc(-c3ccnc(Cl)c3)nn12 [Example 100b]

>  <log10(IC50)>
1.53

$$$$
>  <COMPOUND>
CC(C)CCNC(=O)c1ccc(-c2ccc3nnc(Cc4ccc5c(c4)CCO5)n3n2)s1 [Example 53]

>  <log10(IC50)>
1.54

$$$$
>  <COMPOUND>
Cn1cc(-c2ccc3nnc(C(F)(F)c4ccc5ncccc5c4)n3n2)cn1 [Example 61]

>  <log10(IC50)>
0.30

$$$$
>  <COMPOUND>
c1cnc2ccc(Cc3nnc4ccc(-c5cncnc5)nn34)cc2c1 [Example 64]

>  <log10(IC50)>
2.23

$$$$
>  <COMPOUND>
CS(=O)(=O)n1cc(-c2ccc3nnc(C(F)(F)c4ccc5ncccc5c4)n3n2)cn1 [Example 99]

>  <log10(IC50)>
1.53

$$$$
>  <COMPOUND>
Cc1cc(-c2ccc3nnc(C(F)(F)c4ccc5ncccc5c4)n3n2)ccn1 [Example 86]

>  <log10(IC50)>
1.53

$$$$
>  <COMPOUND>
COc1ccc(Cn2cnc3ccc(Cc4nnc5ccc(-c6cccnc6)nn45)cc3c2=O)cc1 [Example 68]

>  <log10(IC50)>
1.48

$$$$

====

- TARGET OR SYSTEM: c-Met (Homo sapiens)
- TEST NAME: Delfia autophosphorylation kinase assay on the c-Met
- Type: biochemical
- Set-up: The purified His6 tagged cytoplasmic domain of c-Met was diluted to a concentration of 500 ng/ml; host or cells: Sf9 insect cells (baculovirus, pFastBacHTa)
- STUDY CONDITIONS: His6 tagged cytoplasmic domain of c-Met, 1 μM ATP; read-out: cMet Delfia autophos IC-50
pIC50: −log10 of the molar value.
pIC50 reference

>  <SMILES NOTATION>
c1cncc(-c2ccc3nnc(Cc4ccc5ncnn5c4)n3n2)c1

>  <TARGET OR SYSTEM>
c-Met (Homo sapiens)

>  <pIC50>
7.25

$$$$
>  <SMILES NOTATION>
Oc1ccc(Cc2nnc3ccc(-c4cn[nH]c4)nn23)cc1

>  <TARGET OR SYSTEM>
c-Met (Homo sapiens)

>  <pIC50>
7.80

$$$$
>  <SMILES NOTATION>
CCCc1ncc(-c2ccc3nnc(C(F)(F)c4ccc5ncccc5c4)n3n2)s1

>  <TARGET OR SYSTEM>
c-Met (Homo sapiens)

>  <pIC50>
8.70

$$$$
>  <SMILES NOTATION>
N#Cc1cncc(-c2ccc3nnc(Cc4ccc5ncccc5c4)n3n2)c1

>  <TARGET OR SYSTEM>
c-Met (Homo sapiens)

>  <pIC50>
7.85

$$$$
>  <SMILES NOTATION>
CCCc1ncc(-c2ccc3nnc(Cc4ccc5ncccc5c4)n3n2)s1

>  <TARGET OR SYSTEM>
c-Met (Homo sapiens)

>  <pIC50>
9.00

$$$$
